Item-by-item account of MIC
Tested on: Cryptococcus neoformans
measurement.notes: Antifungal activity against Cryptococcus neoformans ATCC 90113 by CLSI method
Format: functional, organism-based

structure.smiles	MIC
Fc1ccc(C(c2c[nH]c3ccc(I)cc23)c2c[nH]c3ccc(I)cc23)cc1Br	29.9 µM
Fc1cc(F)cc(C(c2c[nH]c3ccccc23)c2c[nH]c3ccccc23)c1	3.49 µM
c1csc(C(c2c[nH]c3ccccc23)c2c[nH]c3ccccc23)c1	30.5 µM
Brc1cccc(C(c2c[nH]c3ccccc23)c2c[nH]c3ccccc23)c1	12.5 µM
C[C@@H]1[C@H](O)[C@@H](C)/C=C/C=C/C=C/C=C/C=C/C=C/C=C/[C@H](O[C@@H]2O[C@H](C)[C@@H](O)[C@H](N)[C@@H]2O)C[C@@H]2O[C@](O)(C[C@@H](O)C[C@@H](O)[C@H](O)CC[C@@H](O)C[C@@H](O)CC(=O)O[C@H]1C)C[C@H](O)[C@H]2C(=O)O	1.35 µM
